Task for the reader: assign each of the following compounds its reported fraction unbound at 6 h.
assay: Unbound fraction in plasma (unknown origin) at pH 7.4 after 6 hrs by equilibrium dialysis method in presence of 5% CO2; type: ADME, cell-free
Numbers only.

{"columns": ["compound", "fraction unbound at 6 h"],
 "data": [
  ["COC(=O)C1=C(C)NC(C)=C(C(=O)OCCN(C)Cc2ccccc2)C1c1cccc([N+](=O)[O-])c1 (configuration not stated)", 0.005],
  ["CNCCC(Oc1ccc(C(F)(F)F)cc1)c1ccccc1 (configuration not stated)", 0.056],
  ["CC(C)NCC(O)COc1cccc2ccccc12 (configuration not stated)", 0.231],
  ["CCN(CC)C(=O)C1(c2ccccc2)CC1CN (configuration not stated)", 0.837],
  ["CCn1nc(C(=O)O)c(=O)c2cc3c(cc21)OCO3", 0.214]
]}

Provide reported fraction unbound at 6 h for each item, in the same order as listed.
1. CN1CCN2c3ncccc3Cc3ccccc3C2C1 (configuration not stated)
2. Cc1nc2n(c(=O)c1CCN1CCC(c3noc4cc(F)ccc34)CC1)CCCC2

**Result**
1: 0.286; 2: 0.186
